Test: Approximate solubility of starting material at RT by stepwise solvent addition
Type: physicochemical
Conditions: organic solvent or mixture, thermodynamic from solid; MEK, RT
endpoint-name: solubility

Report solubility, nothing else, for this molecule: COc1ccc(CN2CCN(CCOC(=O)c3cccnc3)CC2)c(OC)c1OC [Form A]
< 2000 µg/mL

* * *

Assay: Approximate solubility of starting material at RT by stepwise solvent addition
Format: physicochemical
Settings: organic solvent or mixture, thermodynamic from solid; IPAc, RT
endpoint-name: solubility

Report solubility, nothing else, for this compound: COc1ccc(CN2CCN(CCOC(=O)c3cccnc3)CC2)c(OC)c1OC [Form A]
< 1700 µg/mL

* * *

Test: Approximate solubility of starting material at RT by stepwise solvent addition
Assay type: physicochemical
Settings: water, thermodynamic from solid; H2O, RT
endpoint-name: solubility

Report solubility, nothing else, for this compound: COc1ccc(CN2CCN(CCOC(=O)c3cccnc3)CC2)c(OC)c1OC [Form A]
> 44 mg/mL

* * *

Assay: Approximate solubility of starting material at RT by stepwise solvent addition
Format: physicochemical
Conditions: organic solvent or mixture, thermodynamic from solid; MIBK, RT
Method: Starting with Form A, polymorph screening experiments were set up under 34 conditions using methods of slurry conversion, liquid vapor diffusion, slow evaporation, and slow cooling. The approximate solubility of starting material was determined at room temperature (RT). Accurately weighed samples of approximately 2 mg weight were added into a 3-mL glass vial. Solvents were then added step wise (50/50/200/700 μL) into the vials until the solids were dissolved or a total volume of 1 mL was reached.
endpoint-name: solubility

Report solubility, nothing else, for this compound: COc1ccc(CN2CCN(CCOC(=O)c3cccnc3)CC2)c(OC)c1OC [Form A]
< 2000 µg/mL

* * *

Experiment: Approximate solubility of starting material at RT by stepwise solvent addition
Type: physicochemical
Conditions: organic solvent or mixture, thermodynamic from solid; EtOH, RT
endpoint-name: solubility

Report solubility, nothing else, for this molecule: COc1ccc(CN2CCN(CCOC(=O)c3cccnc3)CC2)c(OC)c1OC [Form A]
< 1700 µg/mL

* * *

Experiment: Approximate solubility of starting material at RT by stepwise solvent addition
Type: physicochemical
Conditions: organic solvent or mixture, thermodynamic from solid; MeOH, RT
Method: Starting with Form A, polymorph screening experiments were set up under 34 conditions using methods of slurry conversion, liquid vapor diffusion, slow evaporation, and slow cooling. The approximate solubility of starting material was determined at room temperature (RT). Accurately weighed samples of approximately 2 mg weight were added into a 3-mL glass vial. Solvents were then added step wise (50/50/200/700 μL) into the vials until the solids were dissolved or a total volume of 1 mL was reached.
endpoint-name: solubility

Report solubility, nothing else, for this compound: COc1ccc(CN2CCN(CCOC(=O)c3cccnc3)CC2)c(OC)c1OC [Form A]
> 46 mg/mL

* * *

Test: Approximate solubility of starting material at RT by stepwise solvent addition
Assay type: physicochemical
Conditions: organic solvent or mixture, thermodynamic from solid; Toluene, RT
endpoint-name: solubility

Report solubility, nothing else, for this compound: COc1ccc(CN2CCN(CCOC(=O)c3cccnc3)CC2)c(OC)c1OC [Form A]
< 2300 µg/mL

* * *

Experiment: Approximate solubility of starting material at RT by stepwise solvent addition
Assay type: physicochemical
Conditions: organic solvent or mixture, thermodynamic from solid; EtOAc, RT
endpoint-name: solubility

Report solubility, nothing else, for this molecule: COc1ccc(CN2CCN(CCOC(=O)c3cccnc3)CC2)c(OC)c1OC [Form A]
< 1.8 mg/mL

* * *

Assay: Approximate solubility of starting material at RT by stepwise solvent addition
Assay type: physicochemical
Conditions: organic solvent or mixture, thermodynamic from solid; NMP, RT
endpoint-name: solubility

Report solubility, nothing else, for this compound: COc1ccc(CN2CCN(CCOC(=O)c3cccnc3)CC2)c(OC)c1OC [Form A]
6.7 to 20 mg/mL

* * *

Test: Approximate solubility of starting material at RT by stepwise solvent addition
Type: physicochemical
Conditions: organic solvent or mixture, thermodynamic from solid; IPA, RT
endpoint-name: solubility

Report solubility, nothing else, for this compound: COc1ccc(CN2CCN(CCOC(=O)c3cccnc3)CC2)c(OC)c1OC [Form A]
< 2300 µg/mL

* * *

Test: Approximate solubility of starting material at RT by stepwise solvent addition
Assay type: physicochemical
Settings: organic solvent or mixture, thermodynamic from solid; DMSO, RT
Procedure: Starting with Form A, polymorph screening experiments were set up under 34 conditions using methods of slurry conversion, liquid vapor diffusion, slow evaporation, and slow cooling. The approximate solubility of starting material was determined at room temperature (RT). Accurately weighed samples of approximately 2 mg weight were added into a 3-mL glass vial. Solvents were then added step wise (50/50/200/700 μL) into the vials until the solids were dissolved or a total volume of 1 mL was reached.
endpoint-name: solubility

Report solubility, nothing else, for this molecule: COc1ccc(CN2CCN(CCOC(=O)c3cccnc3)CC2)c(OC)c1OC [Form A]
5000 to 15000 µg/mL

* * *

Experiment: Approximate solubility of starting material at RT by stepwise solvent addition
Type: physicochemical
Settings: organic solvent or mixture, thermodynamic from solid; CPME, RT
endpoint-name: solubility

Report solubility, nothing else, for this molecule: COc1ccc(CN2CCN(CCOC(=O)c3cccnc3)CC2)c(OC)c1OC [Form A]
< 1500 µg/mL

* * *

Test: Approximate solubility of starting material at RT by stepwise solvent addition
Format: physicochemical
Details: organic solvent or mixture, thermodynamic from solid; THF, RT
endpoint-name: solubility

Report solubility, nothing else, for this compound: COc1ccc(CN2CCN(CCOC(=O)c3cccnc3)CC2)c(OC)c1OC [Form A]
< 2200 µg/mL

* * *

Assay: Approximate solubility of starting material at RT by stepwise solvent addition
Type: physicochemical
Conditions: organic solvent or mixture, thermodynamic from solid; 1,4-Dioxane, RT
endpoint-name: solubility

Report solubility, nothing else, for this compound: COc1ccc(CN2CCN(CCOC(=O)c3cccnc3)CC2)c(OC)c1OC [Form A]
< 1700 µg/mL
